IC50 values by entry
Biological target: HCV NS3/4A protease complex (Hepatitis C virus genotype 1a, UniProt P27958, C1454S/C1711G)
Sequence (P27958 1027-1711, stated change not applied): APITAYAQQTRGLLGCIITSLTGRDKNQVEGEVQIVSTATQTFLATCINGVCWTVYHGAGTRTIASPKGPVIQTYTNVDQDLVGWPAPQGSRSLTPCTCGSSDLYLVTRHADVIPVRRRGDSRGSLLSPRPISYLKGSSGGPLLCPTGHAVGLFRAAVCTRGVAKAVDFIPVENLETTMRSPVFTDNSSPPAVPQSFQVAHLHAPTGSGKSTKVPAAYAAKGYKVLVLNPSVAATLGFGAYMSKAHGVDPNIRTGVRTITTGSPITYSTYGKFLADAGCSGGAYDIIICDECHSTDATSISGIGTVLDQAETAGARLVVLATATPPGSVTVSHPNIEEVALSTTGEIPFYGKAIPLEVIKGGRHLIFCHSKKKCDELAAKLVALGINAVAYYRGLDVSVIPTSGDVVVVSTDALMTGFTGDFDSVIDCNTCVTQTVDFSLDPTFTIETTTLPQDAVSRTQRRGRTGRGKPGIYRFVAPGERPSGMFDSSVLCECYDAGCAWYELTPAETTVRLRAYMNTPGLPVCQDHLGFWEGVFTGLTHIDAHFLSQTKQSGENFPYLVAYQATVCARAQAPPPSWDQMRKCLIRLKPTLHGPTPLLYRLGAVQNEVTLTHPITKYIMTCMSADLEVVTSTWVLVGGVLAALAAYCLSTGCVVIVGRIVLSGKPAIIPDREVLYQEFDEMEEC
Sequence (P27958 1027-1711, stated change not applied): as above
Assay: Recombinant HCV NS3/4A protease complex FRET peptide assay (strain not stated)
Format: biochemical
Conditions: IC50, NS3/4A protease enzyme assay, strain not stated; activity ranges

Examples from the recorded data:
C=C1C[C@]1(NC(=O)[C@@H]1C[C@@H](Oc2cc(-c3ccccc3)nc3cc(OC)ccc23)CN1C(=O)C(NC(=O)OC(C)(C)C)C(C)(C)C)C(=O)NS(=O)(=O)c1cccc(Br)c1 (stereo partly drawn) ... < 50 nM
C=CC1C[C@]1(NC(=O)[C@@H]1C[C@@H](Oc2cc(-c3ccccc3)nc3cc(OC)ccc23)CN1C(=O)C(NC(=O)OC(C)(C)C)C(C)(C)C)C(=O)NS(=O)(=O)c1ccc(C(C)(C)C)cc1 (stereo partly drawn) ... < 500 nM

Request: Which measured IC50 belongs to C=COC(=O)N[C@H](C(=O)N1C[C@H](Oc2cc(-c3ccccc3)nc3cc(OC)ccc23)CC1C(=O)N[C@]1(C(=O)NS(=O)(=O)C2CC2)C[C@H]1C=C)C(C)(C)C (stereo partly drawn) , tested on HCV NS3/4A protease complex (Hepatitis C virus genotype 1a, UniProt P27958, C1454S/C1711G)?
Result: < 50 nM

Request: Which measured IC50 belongs to C=CC1C[C@]1(NC(=O)[C@@H]1C[C@@H](Oc2cc(-c3ccccc3)nc3cc(OC)ccc23)CN1C(=O)[C@@H](NC(=O)OC(C)(C)C)C(C)(C)C)C(=O)NS(=O)(=O)c1cccc([N+](=O)[O-])c1 (stereo partly drawn) , tested on HCV NS3/4A protease complex (Hepatitis C virus genotype 1a, UniProt P27958, C1454S/C1711G)?
Result: < 50 nM

Request: Which measured IC50 belongs to C=C[C@@H]1C[C@]1(NC(=O)C1C[C@@H](Oc2cc(-c3ccccc3)nc3cc(OC)ccc23)CN1C(=O)[C@@H](Nc1ccccc1[N+](=O)[O-])C(C)(C)C)C(=O)NS(=O)(=O)C1CC1 (stereo partly drawn) , tested on HCV NS3/4A protease complex (Hepatitis C virus genotype 1a, UniProt P27958, C1454S/C1711G)?
Result: < 5000 nM

Request: Which measured IC50 belongs to C=CC1C[C@]1(NC(=O)[C@@H]1C[C@@H](Oc2cc(-c3ccccc3)nc3cc(OC)ccc23)CN1C(=O)[C@@H](NC(=O)NC(C)(C)C)C(C)(C)C)C(=O)NS(=O)(=O)C1CC1 (stereo in doubt) , tested on HCV NS3/4A protease complex (Hepatitis C virus genotype 1a, UniProt P27958, C1454S/C1711G)?
Result: < 50 nM

Request: Which measured IC50 belongs to COc1ccc2c(OC3C[C@@H](C(=O)NC4(C(=O)NS(=O)(=O)C5CC5)CC45CCCC5)N(C(=O)[C@@H](NC(=O)OC(C)(C)C)C(C)(C)C)C3)cc(-c3ccccc3)nc2c1 (stereo partly drawn) , tested on HCV NS3/4A protease complex (Hepatitis C virus genotype 1a, UniProt P27958, C1454S/C1711G)?
Result: < 5000 nM

Request: Which measured IC50 belongs to C=C[C@@H]1C[C@]1(NC(=O)C1C[C@@H](Oc2cc(-c3ccccc3)nc3cc(OC)ccc23)CN1C(=O)[C@@H](NC(C)=O)C(C)(C)C)C(=O)NS(=O)(=O)C1CC1 (stereo partly drawn) , tested on HCV NS3/4A protease complex (Hepatitis C virus genotype 1a, UniProt P27958, C1454S/C1711G)?
Result: < 50 nM

Request: Which measured IC50 belongs to C=CC1C[C@]1(NC(=O)[C@@H]1C[C@@H](Oc2cc(-c3ccccc3)nc3cc(OC)ccc23)CN1C(=O)[C@@H](NC(=O)OC(C)(C)C)C(C)(C)C)C(=O)N[S+]([O-])C(C)(C)C (stereo partly drawn) [Compound 61] , tested on HCV NS3/4A protease complex (Hepatitis C virus genotype 1a, UniProt P27958, C1454S/C1711G)?
Result: < 500 nM
